src = patent US20210255193A1

- study-target: ABHD10 Abhydrolase domain-containing protein 10, mitochondrial (Homo sapiens)
- Construct: endogenous in cells; host or cells: MDA-MB-231 lysate
- Sequence (Q9NUJ1 53-306): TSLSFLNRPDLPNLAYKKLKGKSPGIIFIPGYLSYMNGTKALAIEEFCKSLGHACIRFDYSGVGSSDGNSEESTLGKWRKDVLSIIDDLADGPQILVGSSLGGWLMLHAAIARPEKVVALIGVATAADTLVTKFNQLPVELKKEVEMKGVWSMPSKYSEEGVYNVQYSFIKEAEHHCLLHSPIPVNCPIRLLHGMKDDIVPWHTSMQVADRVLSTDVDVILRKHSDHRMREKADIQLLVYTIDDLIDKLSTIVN
- protocol-notes: competitive isoTOP-ABPP
- Format: binding
- Parameters: key: R = MS1 peak area ratio, DMSO (heavy) / compound-treated (light); capped at 20
- experimental-conditions: 50 uM, 231 sol, in vitro
- Procedure: In vitro covalent fragment treatment for isoTOP-ABPP. All compounds were made up as solutions in DMSO (100×) and were used at a final concentration of 50 μM for activated esters and 100 μM for guanidinylating agents. […] R value calculation and processing. The ratios of light and heavy MS1 peaks for each unique peptide were quantified with a CIMAGE software using default parameters (3 MS1 acquisitions per peak and signal to noise threshold set to 2.5). […]
reported-metric: isoTOP-ABPP reactivity ratio at lysine Q9NUJ1_K185

                                   compound  experimental_result
0  O=C(CCc1cn(-c2ccccc2)nc1-c1ccccc1)Oc1ccc([N+](=O)[O-])cc1[N+](=O)[O-]                  1.3
1  COc1cc(CCC(=O)Oc2ccc([N+](=O)[O-])cc2[N+](=O)[O-])cc(OC)c1OC                  2.1
2  O=C(CN1C(=O)c2ccccc2C1=O)Oc1c(F)c(F)c(F)c(F)c1F                  1.9
3  CCn1cc(C(=O)Oc2c(F)c(F)c(F)c(F)c2F)c(=O)c2ccc(C)nc21                  1.2
4  O=C(Oc1ccc([N+](=O)[O-])cc1[N+](=O)[O-])C(c1ccccc1)c1ccccc1 [fragment 30, 2,4-Dinitrophenyl 2,2-diphenylacetate]                  2.4
5  O=C(Oc1ccc([N+](=O)[O-])cc1[N+](=O)[O-])c1cc(C(F)(F)F)cc(C(F)(F)F)c1                  4.4
6  O=C(Oc1c(F)c(F)c(F)c(F)c1F)c1ccc2ccccc2n1                  1.5
7  O=C(CCc1coc2cc(F)ccc2c1=O)Oc1c(F)c(F)c(F)c(F)c1F                  1.5
8  Cn1cc(CC(=O)Oc2ccc([N+](=O)[O-])cc2[N+](=O)[O-])c2ccccc21                  1.4
